Study system: T1, Duffy Antigen Receptor for Chemokines (DARC) (human, UniProt Q16570 1-336)
T1 construct: whole, on cells
T1 sequence (looked up): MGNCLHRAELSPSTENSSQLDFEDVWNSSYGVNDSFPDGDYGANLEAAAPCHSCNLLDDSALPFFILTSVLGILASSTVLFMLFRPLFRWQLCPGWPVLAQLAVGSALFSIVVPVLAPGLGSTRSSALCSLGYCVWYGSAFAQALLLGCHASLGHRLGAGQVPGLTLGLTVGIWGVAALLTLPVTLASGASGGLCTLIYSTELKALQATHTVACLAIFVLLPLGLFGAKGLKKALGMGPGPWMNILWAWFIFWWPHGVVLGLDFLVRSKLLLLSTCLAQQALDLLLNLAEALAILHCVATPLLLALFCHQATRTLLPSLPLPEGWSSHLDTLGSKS
Experimental details: estimated ka for binding to red blood cells divided by average inhibitory ED50 (THP-1 migration)
Ends that are not written are not given here.
Would you please tag the item criterion met when its Duffy selectivity is 2 ratio or above, and criterion not met when it is below?

# Binder, Assigned class
rows = [
    ("EICADPSEEWVQ (not fully specified, also called Ser7Glu8Glu9pep3) [Ser7Glu8Glu9peptide 3(1-12)[MCP-1]]", "criterion not met"),
    ("CADPKQKWVQ (also called Pep3[3-12]; Pep3(3-12)[MCP-1]) [peptide 3(3-12)[MCP-1]]", "criterion not met"),
    ("KQKWVQ (also called Pep3[7-12]; KQKWVQ) [peptide 3(7-12)[MCP-1]]", "criterion met"),
    ("EICLDPKQKWIQ (also called Leu4Ile11pep3; Leu4Ile11peptide 3[MCP-1]) [Leu4Ile11peptide 3(1-12)[MCP-1]]", "criterion met"),
]
